Provide the reported pIC50 of each item.
Target: RAJI p110 δ (Homo sapiens)
Sequence (O00329 whole entry): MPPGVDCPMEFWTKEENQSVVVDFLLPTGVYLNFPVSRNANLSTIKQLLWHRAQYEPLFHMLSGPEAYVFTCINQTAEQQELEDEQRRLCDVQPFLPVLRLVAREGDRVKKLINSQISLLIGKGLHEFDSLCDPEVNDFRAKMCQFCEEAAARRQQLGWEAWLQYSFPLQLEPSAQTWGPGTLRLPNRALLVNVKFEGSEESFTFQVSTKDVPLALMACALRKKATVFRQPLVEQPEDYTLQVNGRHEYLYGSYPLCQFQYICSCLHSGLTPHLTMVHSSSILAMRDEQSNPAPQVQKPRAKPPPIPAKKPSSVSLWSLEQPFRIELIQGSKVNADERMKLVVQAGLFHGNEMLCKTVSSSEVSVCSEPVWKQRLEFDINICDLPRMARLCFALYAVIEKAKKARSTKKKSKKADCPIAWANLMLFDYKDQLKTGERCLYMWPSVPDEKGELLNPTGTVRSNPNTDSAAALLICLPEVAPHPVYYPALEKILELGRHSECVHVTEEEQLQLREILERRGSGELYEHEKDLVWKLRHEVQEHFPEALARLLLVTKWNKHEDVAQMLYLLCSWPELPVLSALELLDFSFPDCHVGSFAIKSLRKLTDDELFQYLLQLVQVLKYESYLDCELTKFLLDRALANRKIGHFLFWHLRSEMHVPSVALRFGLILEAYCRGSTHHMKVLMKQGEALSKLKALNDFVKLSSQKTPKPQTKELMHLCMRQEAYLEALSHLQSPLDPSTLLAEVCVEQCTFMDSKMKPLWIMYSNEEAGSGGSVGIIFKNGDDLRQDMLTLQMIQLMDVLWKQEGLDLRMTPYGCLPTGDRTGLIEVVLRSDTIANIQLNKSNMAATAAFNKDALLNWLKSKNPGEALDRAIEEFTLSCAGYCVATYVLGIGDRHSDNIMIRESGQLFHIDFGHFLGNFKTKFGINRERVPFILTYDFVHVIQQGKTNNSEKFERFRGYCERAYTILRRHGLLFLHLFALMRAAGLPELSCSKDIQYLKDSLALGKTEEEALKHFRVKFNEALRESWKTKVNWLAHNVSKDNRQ
Sequence (P27986 whole entry partner): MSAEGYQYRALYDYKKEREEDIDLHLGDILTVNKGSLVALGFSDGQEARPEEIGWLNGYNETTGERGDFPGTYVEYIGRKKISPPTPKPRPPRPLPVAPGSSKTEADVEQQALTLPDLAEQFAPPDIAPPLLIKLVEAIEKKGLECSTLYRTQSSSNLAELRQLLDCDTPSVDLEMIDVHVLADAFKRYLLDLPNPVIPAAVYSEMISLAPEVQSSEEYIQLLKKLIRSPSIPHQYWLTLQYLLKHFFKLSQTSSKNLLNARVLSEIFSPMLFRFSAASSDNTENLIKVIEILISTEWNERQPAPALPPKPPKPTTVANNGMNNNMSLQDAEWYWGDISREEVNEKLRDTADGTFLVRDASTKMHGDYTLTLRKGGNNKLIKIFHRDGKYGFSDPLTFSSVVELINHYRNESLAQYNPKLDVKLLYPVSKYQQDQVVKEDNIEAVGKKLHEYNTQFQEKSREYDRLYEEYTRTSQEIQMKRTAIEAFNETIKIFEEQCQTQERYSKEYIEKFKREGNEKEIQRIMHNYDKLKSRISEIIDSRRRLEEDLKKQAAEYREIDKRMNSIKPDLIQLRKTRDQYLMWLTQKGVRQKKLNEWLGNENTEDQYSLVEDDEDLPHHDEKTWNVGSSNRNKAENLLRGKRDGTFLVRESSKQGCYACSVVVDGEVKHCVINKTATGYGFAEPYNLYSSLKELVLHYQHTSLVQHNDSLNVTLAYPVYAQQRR
Assay: RAJI p110 δ cellular assay (phospho-AKT);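 note: potency based on lowered phosphorylated AKT in RAJI cells, as a readout of PI3K-δ dependent B-cell receptor signaling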
pIC50: −log10 of the molar value.

What does the data say about its pIC50? Entry: COc1cc(-c2cccc3cc(C(C)NC(=O)c4c(N)nn5cccnc45)c(-c4ccccc4)nc23)ccn1 (centres unmarked)
6.00 to 7.00

What does the data say about its pIC50? Entry: `C[C@H](NC(=O)c1nc(-c2ccc(S(C)(=O)=O)cc2)cnc1N)c1cc2cccc(Cl)c2c(=O)n1-c1ccccc1`
5.00 to 6.00

What does the data say about its pIC50? Entry: `C[C@H](NC(=O)c1nc(-c2csc(S(C)(=O)=O)n2)cnc1N)c1cc2cccc(Cl)c2c(=O)n1-c1ccccc1`
5.00 to 6.00

What does the data say about its pIC50? Entry: `C[C@H](NC(=O)c1c(N)nn2cccnc12)c1cc2cccc(N3CCOCC3)c2c(=O)n1-c1ccccc1`
5.00 to 6.00

What does the data say about its pIC50? Entry: `C[C@H](NC(=O)c1c(N)nn2cccnc12)c1cc2sccc2c(=O)n1-c1ccccc1`
6.00 to 7.00

What does the data say about its pIC50? Entry: `C=CCn1c([C@H](C)NC(=O)c2c(N)nn3cccnc23)cc2cccc(Cl)c2c1=O`
> 7.00

What does the data say about its pIC50? Entry: `C[C@H](NC(=O)c1nc(-c2cnn(C)c2)cnc1N)c1cc2cccc(Cl)c2c(=O)n1-c1ccccc1`
6.00 to 7.00

What does the data say about its pIC50? Entry: `CC(C)Oc1ccc(-c2cnc(N)c(C(=O)N[C@@H](C)c3cc4cccc(Cl)c4c(=O)n3-c3ccccc3)n2)cn1`
6.00 to 7.00

What does the data say about its pIC50? Entry: `C[C@H](NC(=O)c1nc(-c2cccc(NS(=O)(=O)N(C)C)c2)cnc1N)c1cc2cccc(Cl)c2c(=O)n1-c1ccccc1`
> 7.00

What does the data say about its pIC50? Entry: `Cc1cnc(N)c(C(=O)N[C@@H](C)c2cc3cccc(Cl)c3c(=O)n2-c2ccccc2)n1`
6.00 to 7.00

What does the data say about its pIC50? Entry: `C[C@H](NC(=O)c1c(N)nn2cccnc12)c1cc2cccc(C3CC3)c2c(=O)n1-c1ccccc1`
6.00 to 7.00

What does the data say about its pIC50? Entry: `C=CC(=O)NCC#Cc1cccc2cc([C@H](C)NC(=O)c3c(N)nn4cccnc34)n(-c3ccccc3)c(=O)c12`
> 7.00

What does the data say about its pIC50? Entry: `COc1cc(-c2cccc3cc([C@H](C)NC(=O)c4c(N)nn5cccnc45)n(C4CC4)c(=O)c23)ccn1`
6.00 to 7.00

What does the data say about its pIC50? Entry: `COc1cccc2cc([C@H](C)NC(=O)c3c(N)nn4cccnc34)n(-c3ccccc3)c(=O)c12`
6.00 to 7.00
